Test: NCI Yeast Anticancer Drug Screen. Data for the CLN2oe strain (AID 163);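 further: 0% = growth of vehicle-only control cultures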
Settings: S. cerevisiae CLN2oe strain, at 33.0 µM, active compounds read high
The panel holds about 79,000 compounds, 15% with a hit somewhere; the sample as a whole holds those more often.
growth inhibition below 60% gives False; growth inhibition at or above it gives True.

compound	category
COc1ccc(/C=C/c2sc3ccccc3[n+]2CCCCI)cc1OC	False
Oc1ccc2c(c1)C(O)CCCC2 (stereo not given)	False
CNC(=O)OCc1c(COC(=O)NC)c(-c2ccc(Cl)c(Cl)c2)n2c1SCC2	False
Cc1cc(O)c(C(C)C)cc1C1(c2cc(C(C)C)c(O)cc2C)OC(=O)c2ccccc21	False
CCOC(=O)/C(=C\c1ccc(C#N)cc1)C(C)=O	True
O=[N+]([O-])/C=C/c1cc(Cl)c(/C=C/[N+](=O)[O-])cc1Cl	True
NNC(=O)CCc1cc2ccccc2c2ccccc12	False
COc1ccc2[nH]cc([C@@H]3C4CCC(C4)[C@H]3NCc3cccc(CN[C@H]4C5CCC(C5)[C@@H]4c4c[nH]c5ccc(OC)cc45)c3)c2c1	True
COc1ccc(C/C=N/Nc2ccc([N+](=O)[O-])cc2)cc1OC	False
O=C(O)c1cc2ccccc2c2c1C(=O)c1ccccc1-2	True

* * *

Recorded growth inhibition values for a group of compounds are listed next.
Assay: NCI Yeast Anticancer Drug Screen. Data for the sgs1 strain (AID 173);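 further: 0% = growth of vehicle-only control cultures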
Settings: S. cerevisiae sgs1 mutant, at 3.7 µM, active compounds read high
Compounds without any hit were thinned out: in the full panel of roughly 79,000, 15% have a hit.

compound	growth inhibition [%]
O=C1Nc2ccc(Br)cc2C1=Nc1ccc2c(c1)OCO2	-21
Nc1ccc2c(c1)C(=O)c1ccc(F)cc1-2	-4
COc1cccc(/C=N/C(/N=C/c2cccc(OC)c2O)c2cccc(OC)c2O)c1O	3
Cc1cccc2c1nc1ccc(Cl)cc1[n+]2C	13
O=C1N=C2SC=C(NC(=S)Nc3ccccc3)N2NC12c1ccccc1-c1ccccc12	15
C[Si](C)(C)/C=C/CCNC(C#N)c1ccccc1 (stereo unspecified)	-15

* * *

Experiment: NCI Yeast Anticancer Drug Screen. Data for the mgt1 strain (AID 153)
Details: S. cerevisiae mgt1 mutant growth inhibition; at 33.0 µM
About 79,000 compounds went through this panel and 15% of them were active in at least one assay; those are over-represented in the sample as a whole. The source made the active and inactive calls. Rule as the data show it: active = growth inhibition above about 70%; inactive = the rest.
Outcome codes: yes = active, no = inactive

compound	category
C[CH2][Sn]([CH2]C)([O]C(=O)C(N)Cc1ccccc1)[O]C(=O)C(N)Cc1ccccc1 (stereo not given)	no
Cc1c2cccc(Sc3ccccc3)c2c2c3c(cccc13)[S+](c1ccccc1)C2 (stereo not given)	yes
O=c1[nH]c2ccc(Cl)cc2o1	no
CN(C)CCNc1ccc2ncnc3c2c1C(=O)c1ccccc1-3	no
N#CNC(N)=Nc1cc2ccccc2c2ccccc12	yes
Cc1cc(N(CCOS(C)(=O)=O)CCOS(C)(=O)=O)ccc1C=Nc1ccc(-c2csc(-c3ccccc3)n2)c(Cl)c1	yes
O=C(/C=C\c1cccc(C(F)(F)F)c1)c1ccccc1	no
COC(=O)C1=C(C(=O)OC)C(C(=O)OC)C(C(=O)OC)C(C(=O)OC)(C(=O)OC)C(C(=O)OC)=C1C(=O)OC (stereo not given)	no
c1ccc2cc(NCNc3ccc4ccccc4c3)ccc2c1	no
Cc1cc(C(C)(C)C)c(OCCCN2CCOCC2)c(C(C)(C)C)c1	no
